- assay-remarks: Oral bioavailability in rat
- condition-parameters: in vivo, intraduodenal, 10 mg/kg
measurement-label: bioavailability (%)

A: CCCC[C@H](N[C@@H](Cc1ccccc1)C(=O)N1CCC(OCOC)CC1)C(=O)N[C@@H](CC1CCCCC1)[C@@H](O)C[C@H](C(=O)NCCC[N+]1([O-])CCOCC1)C(C)C
B: CCCC[C@H](N[C@@H](Cc1ccccc1)C(=O)N1CCC(OCOC)CC1)C(=O)N[C@@H](CC1CCCCC1)[C@@H](O)C[C@H](C(=O)NCc1ccncc1)C(C)C
C: CCCC[C@H](N[C@@H](Cc1ccccc1)C(=O)N1CCC(OCOC)CC1)C(=O)N[C@@H](CC1CCCCC1)[C@@H](O)C[C@H](C(=O)NCCNc1n[nH]c(N)n1)C(C)C
D: CCCC[C@H](N[C@@H](Cc1ccccc1)C(=O)N1CCC(OCOC)CC1)C(=O)N[C@@H](CC1CCCCC1)[C@@H](O)C[C@H](C(=O)NCc1ccccn1)C(C)C
q: With regard to bioavailability, arrange the entries in ascending order, please. Reply format: the labels, ordered as requested.
a: C, A, B, D
(C: 2%, A: 6%, B: 11%, D: 21%)
